Note to self: these compounds have Ki reported for 5-hydroxytryptamine receptor 2A (Homo sapiens, UniProt P28223) in various publications.
// returns 0 (no) unless Ki is strictly below 100 nM, in which case 1 (yes)

| structure-as-smiles | class |
| --- | --- |
| C[C@H]1CN(C(=O)c2ccc(-c3ccc(F)cc3)cc2)CCN1C(=O)c1ccc2cc[nH]c2c1 | 0 (no) |
| COc1ccccc1N1CCN(C/C=C/CNC(=O)c2ccc3c(c2)Cc2ccccc2-3)CC1 | 1 (yes) |
| c1ccc(CCNCC2c3ccccc3Cc3ccccc32)cc1 | 0 (no) |
| CC(=O)c1c(C)cc2oc(=O)cc(C)c2c1OCCCCN1CCN(c2ccc([N+](=O)[O-])cc2)CC1 | 1 (yes) |
| CC(=O)Nc1ccc(OCCCCN2CCC(c3noc4cc(F)ccc34)CC2)cc1 | 0 (no) |
| COc1ccccc1N1CCN(CCCCCNC(=O)c2cnn3ccccc23)CC1 | 0 (no) |
| N#Cc1ccc(S(=O)(=O)/N=C(\N)N2C[C@H](c3ccccc3)C(c3ccc(Cl)cc3)=N2)cc1 | 0 (no) |
| O=C(c1ccc(-c2ccccc2)cc1)N1CCN(C(=O)c2ccc3cc[nH]c3c2)CC1 | 0 (no) |

Here is the next item to consider.
Query: Does the reported Ki of "CCC(CC)Nc1nc(Cl)nc2c1ncn2[C@H]1[C@H](O)[C@H](O)[C@]2(CO)C[C@H]12" stay below 100 nM?
Response: 0 (no)
